Where do these numbers come from? They come from paper PMC9090415.

Hi there, I'd appreciate the recorded % inhibition apPOL 180' for every entry that follows.
# TARGET: P. falciparum apicoplast DNA polymerase (Pf-apPOL) (Plasmodium falciparum)
# Sequence (Q8ILY1 entry or part of it): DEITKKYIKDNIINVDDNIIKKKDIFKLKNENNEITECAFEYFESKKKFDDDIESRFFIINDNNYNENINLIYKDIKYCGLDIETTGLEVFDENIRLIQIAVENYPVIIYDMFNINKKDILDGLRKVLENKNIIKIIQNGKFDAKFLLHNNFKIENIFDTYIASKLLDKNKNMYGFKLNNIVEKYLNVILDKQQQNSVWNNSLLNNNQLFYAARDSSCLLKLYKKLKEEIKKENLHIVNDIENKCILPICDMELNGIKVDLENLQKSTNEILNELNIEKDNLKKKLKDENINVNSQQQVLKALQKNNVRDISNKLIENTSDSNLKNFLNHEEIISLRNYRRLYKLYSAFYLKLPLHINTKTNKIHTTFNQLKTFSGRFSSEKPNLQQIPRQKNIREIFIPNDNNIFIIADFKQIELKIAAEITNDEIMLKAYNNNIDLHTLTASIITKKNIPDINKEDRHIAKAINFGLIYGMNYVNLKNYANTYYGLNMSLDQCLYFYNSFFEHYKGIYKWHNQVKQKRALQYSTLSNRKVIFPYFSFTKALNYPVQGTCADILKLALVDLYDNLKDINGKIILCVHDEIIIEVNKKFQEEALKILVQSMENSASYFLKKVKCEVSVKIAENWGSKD
# ASSAY_NOTES: Fluorescence-based high-throughput DNA polymerase assay (molecular beacon), primary screen and dose-response;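 further: test concentration in µM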
# Assay type: biochemical
# TEST_CONTEXT: DRC-1; 180'; concentration 80
Use % as the unit, but write only the number.

[Q] Give a short answer stating reported % inhibition apPOL 180' for COc1ccc(-c2cc3nc4c(c(=O)n3[nH]2)CCN(C(=O)CCc2ccccc2)C4)cc1 [Molecule 17] .
[A] 70

[Q] Output measured % inhibition apPOL 180' for this item: O=C(CSc1nnc(-c2ccncc2)[nH]1)c1ccc(O)c(O)c1 [Molecule 89]
[A] 84.9374

[Q] Please indicate % inhibition apPOL 180' recorded for CCCCSc1nnc2c(n1)OC(c1ccc([N+](=O)[O-])o1)Nc1ccccc1-2 (centres unmarked) [KU0065811]
[A] 82.0141

[Q] Identify the reported % inhibition apPOL 180' for the following entry. CSCCC(C)(O)CNC(=O)C1CC1 (centres unmarked) [KU0200150]
[A] 46.3242

[Q] Write down % inhibition apPOL 180' measured for item O=C(c1c[nH]c2ncccc12)N1CCCC1 [Molecule 63, O=C(c1c[nH]c2c1cccn2)N1CCCC1]
[A] 74.0045

[Q] For the compound O=C(O)C(=O)Nc1nc(-c2ccc3c(c2)OCCO3)cs1 [Molecule 82, OC(=O)C(=O)Nc1scc(n1)c1ccc2c(c1)OCCO2] , report % inhibition apPOL 180'.
[A] 32.4786

[Q] Let me know recorded % inhibition apPOL 180' for O=c1[nH]c2ccc(Br)cc2c(-c2ccccc2)c1C1=NNC(c2ccco2)C1 (centres unmarked) [KU0045540] , thanks.
[A] 81.6451

[Q] Specify measured % inhibition apPOL 180' for CC(C)(C)c1cc(C(=O)C(C#N)=NNc2cccc(Cl)c2)no1 [Molecule 98] .
[A] 96.5379
